Biological target: Voltage-dependent L-type calcium channel subunit alpha-1C (CA+/DILSI/RA) (Rattus norvegicus, UniProt P22002)
Sequence (P22002 whole entry): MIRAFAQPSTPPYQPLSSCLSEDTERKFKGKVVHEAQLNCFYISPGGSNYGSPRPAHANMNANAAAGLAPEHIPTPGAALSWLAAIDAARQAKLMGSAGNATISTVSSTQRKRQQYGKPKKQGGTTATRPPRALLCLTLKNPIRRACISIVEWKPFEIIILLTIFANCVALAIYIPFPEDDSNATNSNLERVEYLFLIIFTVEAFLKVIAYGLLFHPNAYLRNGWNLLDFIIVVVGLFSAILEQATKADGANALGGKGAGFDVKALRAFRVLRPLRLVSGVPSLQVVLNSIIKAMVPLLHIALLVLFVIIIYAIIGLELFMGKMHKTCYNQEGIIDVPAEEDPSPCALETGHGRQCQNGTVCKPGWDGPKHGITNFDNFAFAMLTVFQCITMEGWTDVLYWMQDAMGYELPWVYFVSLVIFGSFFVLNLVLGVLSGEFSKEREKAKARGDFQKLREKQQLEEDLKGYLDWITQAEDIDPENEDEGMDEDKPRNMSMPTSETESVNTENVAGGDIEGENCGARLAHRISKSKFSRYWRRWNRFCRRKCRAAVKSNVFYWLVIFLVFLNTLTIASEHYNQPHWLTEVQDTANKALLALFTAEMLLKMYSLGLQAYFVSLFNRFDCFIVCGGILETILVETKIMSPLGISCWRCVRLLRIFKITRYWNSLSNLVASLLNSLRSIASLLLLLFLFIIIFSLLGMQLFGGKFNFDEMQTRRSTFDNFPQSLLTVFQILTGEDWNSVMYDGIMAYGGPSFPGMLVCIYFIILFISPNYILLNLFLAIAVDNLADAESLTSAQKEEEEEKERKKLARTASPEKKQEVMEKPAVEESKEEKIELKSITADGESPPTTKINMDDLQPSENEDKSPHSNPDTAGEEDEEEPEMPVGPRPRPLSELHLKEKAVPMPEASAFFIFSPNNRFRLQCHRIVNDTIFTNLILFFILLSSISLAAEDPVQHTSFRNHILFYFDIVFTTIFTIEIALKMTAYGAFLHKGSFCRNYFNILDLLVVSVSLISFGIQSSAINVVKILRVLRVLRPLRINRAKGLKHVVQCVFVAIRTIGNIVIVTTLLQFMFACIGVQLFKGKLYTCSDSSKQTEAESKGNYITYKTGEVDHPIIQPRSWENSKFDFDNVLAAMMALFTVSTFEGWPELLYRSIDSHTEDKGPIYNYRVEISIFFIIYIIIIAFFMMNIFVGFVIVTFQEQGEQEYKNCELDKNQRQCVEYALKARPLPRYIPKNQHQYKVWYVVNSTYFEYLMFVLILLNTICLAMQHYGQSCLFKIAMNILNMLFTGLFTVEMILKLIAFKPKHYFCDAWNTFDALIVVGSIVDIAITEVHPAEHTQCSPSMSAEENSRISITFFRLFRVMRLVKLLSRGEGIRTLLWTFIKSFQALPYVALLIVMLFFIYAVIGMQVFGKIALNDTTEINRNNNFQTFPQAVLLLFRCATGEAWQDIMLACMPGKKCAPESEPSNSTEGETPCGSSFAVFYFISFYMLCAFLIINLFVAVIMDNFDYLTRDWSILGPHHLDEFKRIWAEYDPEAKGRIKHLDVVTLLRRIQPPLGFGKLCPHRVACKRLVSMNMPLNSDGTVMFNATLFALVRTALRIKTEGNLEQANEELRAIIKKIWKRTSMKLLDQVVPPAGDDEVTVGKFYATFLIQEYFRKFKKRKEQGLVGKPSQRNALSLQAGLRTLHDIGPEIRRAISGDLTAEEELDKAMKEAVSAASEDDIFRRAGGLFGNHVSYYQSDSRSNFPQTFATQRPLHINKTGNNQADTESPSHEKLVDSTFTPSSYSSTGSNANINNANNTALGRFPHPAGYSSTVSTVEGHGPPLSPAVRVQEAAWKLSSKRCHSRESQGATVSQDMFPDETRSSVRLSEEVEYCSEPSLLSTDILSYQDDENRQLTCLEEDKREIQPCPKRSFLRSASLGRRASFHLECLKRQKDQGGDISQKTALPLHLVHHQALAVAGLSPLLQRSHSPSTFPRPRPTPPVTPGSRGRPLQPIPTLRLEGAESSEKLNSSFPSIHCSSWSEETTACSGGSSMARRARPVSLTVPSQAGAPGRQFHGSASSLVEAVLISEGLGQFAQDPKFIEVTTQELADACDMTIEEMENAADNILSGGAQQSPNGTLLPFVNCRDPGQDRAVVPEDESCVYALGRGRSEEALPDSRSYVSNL
Assay: CA+/DILSI/RA Eurofins SafetyScreen44 (BI)
Settings: compound concentration 1 uM, read-out: % Ctrl

[
  {
    "smiles record": "CCC(F)(F)c1cc(N2CCC(S(C)(=O)=O)CC2)nc2sc(C(N)=O)c(N)c12",
    "activity at 1 µM": "99% (not active)"
  }
]

###

Biological target: Voltage-dependent L-type calcium channel subunit alpha-1C (CA+/DHPSI/RA) (Rattus norvegicus, UniProt P22002)
Assay: CA+/DHPSI/RA Eurofins SafetyScreen44 (BI)
Settings: compound concentration 1 uM, read-out: % Ctrl

[
  {
    "smiles record": "CCC(F)(F)c1cc(N2CCC(S(C)(=O)=O)CC2)nc2sc(C(N)=O)c(N)c12",
    "activity at 1 µM": "104% (not active)"
  }
]

###

Target: AP2-associated protein kinase 1 (Homo sapiens)
Assay: Dose response measurement (AAK1)
pIC50: −log10 of the molar value.
measured quantity: pIC50

[
  {
    "smiles record": "CCC(F)(F)c1cc(N2CCC(S(C)(=O)=O)CC2)nc2sc(C(N)=O)c(N)c12",
    "recorded value": 6.57
  }
]

###

Biological target: Cyclin-G-associated kinase (Homo sapiens)
Assay: Dose response measurement (GAK)
pIC50: −log10 of the molar value.

[
  {
    "smiles record": "CCC(F)(F)c1cc(N2CCC(S(C)(=O)=O)CC2)nc2sc(C(N)=O)c(N)c12",
    "target system": "Cyclin-G-associated kinase (Homo sapiens)",
    "pIC50": 6.73
  }
]

###

Biological target: Voltage-dependent L-type calcium channel subunit alpha-1C (CA+/DHPSI/RA) (Rattus norvegicus)
Assay: CA+/DHPSI/RA Eurofins SafetyScreen44 (BI)
Conditions: compound concentration 10 uM, read-out: % Ctrl

[
  {
    "smiles record": "CCC(F)(F)c1cc(N2CCC(S(C)(=O)=O)CC2)nc2sc(C(N)=O)c(N)c12",
    "activity at 10 µM": "91% (not active)"
  }
]

###

Biological target: Voltage-dependent L-type calcium channel subunit alpha-1C (CA+/PAASITE) (Rattus norvegicus, UniProt P22002)
Sequence (P22002 whole entry): as above
Assay: CA+/PAASITE Eurofins SafetyScreen44 (BI)
Settings: compound concentration 10 uM, read-out: % Ctrl

[
  {
    "smiles record": "CCC(F)(F)c1cc(N2CCC(S(C)(=O)=O)CC2)nc2sc(C(N)=O)c(N)c12",
    "activity at 10 µM": "99% (not active)"
  }
]
